target: human ANO6 (Homo sapiens, UniProt Q4KMQ2); construct: expressed in transfected cells; test: YFP quenching assay (ANO6 ion channel activity); type: cell-based; conditions: test compound 30 μM, 10 μM ionomycin, read-out: Inhibition Level 30 μM
inhibition at 30 µM values for the molecules below.

Check out these entries, answers already filled in.
>  <structureString>
COc1ccc(CNC(=O)c2cccc(Nc3ccc(-c4ccc(F)cc4)nn3)c2)c(OC)c1

>  <value>
30 to 60%

$$$$
>  <structureString>
O=C(NCC1COC1)c1cccc(Nc2ccc(-c3ccccc3)nn2)c1

>  <value>
≥ 60%

$$$$
>  <structureString>
Cc1ccc(CNC(=O)c2cccc(Nc3ccc(-c4ccco4)nn3)c2)o1

>  <value>
≥ 60%

$$$$

Next, consider the following molecule.
# input Recall the recorded inhibition at 30 µM for CSc1ccc(CNC(=O)c2cccc(Nc3ccc(-c4ccc(F)cc4)nn3)c2)cc1 with human ANO6 (Homo sapiens, UniProt Q4KMQ2) and state it.
# output ≥ 60%

###

biological target: human ANO6 (Homo sapiens, UniProt Q4KMQ2); construct: expressed in transfected cells; test: LACT C2 assay (phosphatidylserine scramblase function assay); assay type: cell-based; conditions: test compound 100 nM, FRT cells expressing human ANO6, 10 μM ionomycin, read-out: Inhibition Level 100 nM
propertyLabel: inhibition at 0.1 µM

>  <structureString>
O=C(N[C@@H]1C[C@H]1c1ccccc1)C12CC3CC(CC(Nc4ccc(-c5ccccc5)nn4)(C3)C1)C2

>  <inhibition at 0.1 µM>
< 30%

$$$$

# input inhibition at 0.1 µM lookup needed for O=C(NC1(c2ccccc2)CC1)c1cccc(Nc2ncc(-c3cccc(F)c3)cn2)c1 , thanks.
# output < 30%

# input One more compound: CCN(CCNC(=O)c1cccc(Nc2ccc(-c3ccccc3)nn2)c1)Cc1ccccc1
# output < 30%

# input Try the compound O=C(N[C@@H]1C[C@H]1c1ccccc1)c1cccc(Nc2ncc(-c3ccoc3)cn2)c1
# output 30 to 60%

###

Below is a list of entries, each paired with its recorded inhibition at 0.1 µM value.
Target: human ANO6 (Homo sapiens, UniProt Q4KMQ2)
Construct: expressed in transfected cells
Sequence (Q4KMQ2 1-931 isoform Q4KMQ2-2): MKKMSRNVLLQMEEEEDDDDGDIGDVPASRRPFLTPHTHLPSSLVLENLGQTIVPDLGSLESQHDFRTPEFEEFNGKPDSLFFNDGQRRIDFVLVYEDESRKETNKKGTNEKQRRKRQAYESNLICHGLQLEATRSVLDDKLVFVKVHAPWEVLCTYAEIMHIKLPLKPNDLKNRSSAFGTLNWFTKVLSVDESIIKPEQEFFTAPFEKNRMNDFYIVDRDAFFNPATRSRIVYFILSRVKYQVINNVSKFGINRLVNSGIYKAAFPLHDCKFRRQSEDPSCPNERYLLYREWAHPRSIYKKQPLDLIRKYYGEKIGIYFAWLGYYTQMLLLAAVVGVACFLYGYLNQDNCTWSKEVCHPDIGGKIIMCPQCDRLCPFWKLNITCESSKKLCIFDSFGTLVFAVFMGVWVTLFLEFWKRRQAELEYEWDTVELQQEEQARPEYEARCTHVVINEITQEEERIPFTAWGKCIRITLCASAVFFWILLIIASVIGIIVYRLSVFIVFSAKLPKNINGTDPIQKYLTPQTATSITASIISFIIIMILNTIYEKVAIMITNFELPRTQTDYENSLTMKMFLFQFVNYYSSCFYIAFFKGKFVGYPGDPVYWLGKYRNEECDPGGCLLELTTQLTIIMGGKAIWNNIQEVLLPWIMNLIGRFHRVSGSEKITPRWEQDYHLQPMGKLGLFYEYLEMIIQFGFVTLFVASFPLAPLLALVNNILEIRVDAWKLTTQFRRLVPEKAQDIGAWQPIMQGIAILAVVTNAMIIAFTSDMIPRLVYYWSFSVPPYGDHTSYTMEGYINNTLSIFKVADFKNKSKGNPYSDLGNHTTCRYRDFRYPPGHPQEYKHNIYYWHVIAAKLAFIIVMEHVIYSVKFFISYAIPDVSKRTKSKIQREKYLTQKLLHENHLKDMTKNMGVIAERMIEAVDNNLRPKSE
Experiment: LACT C2 assay (phosphatidylserine scramblase function assay)
Format: cell-based
Conditions: test compound 100 nM, FRT cells expressing human ANO6, 10 μM ionomycin, read-out: Inhibition Level 100 nM

Consider the worked cases shown below.
>  <structureString>
O=C(NCCc1ccc(F)cc1)c1cccc(Nc2ccc(-c3ccccc3)nn2)c1

>  <value>
< 30%

$$$$
>  <structureString>
O=C(NCc1ccc(Cl)cc1Cl)c1cccc(Nc2ncc(-c3cccc(F)c3)cn2)c1

>  <value>
< 30%

$$$$
>  <structureString>
Cc1ccc(CNC(=O)c2cccc(Nc3ncc(-c4ccccc4)cn3)c2)o1

>  <value>
< 30%

$$$$

Okay, next one:
# input Provide the documented inhibition at 0.1 µM with human ANO6 (Homo sapiens, UniProt Q4KMQ2) as the system for O=C(NCc1ccc(Cl)cc1)c1cccc(Nc2ccc(-c3ccccc3)nn2)c1
# output < 30%
